Listing: pIC50 of selected compounds
- target_system: APOL1 G1 Protein (Homo sapiens, UniProt O14791, I384M/S342G)
- Sequence (O14791 28-398 S342G/I384M): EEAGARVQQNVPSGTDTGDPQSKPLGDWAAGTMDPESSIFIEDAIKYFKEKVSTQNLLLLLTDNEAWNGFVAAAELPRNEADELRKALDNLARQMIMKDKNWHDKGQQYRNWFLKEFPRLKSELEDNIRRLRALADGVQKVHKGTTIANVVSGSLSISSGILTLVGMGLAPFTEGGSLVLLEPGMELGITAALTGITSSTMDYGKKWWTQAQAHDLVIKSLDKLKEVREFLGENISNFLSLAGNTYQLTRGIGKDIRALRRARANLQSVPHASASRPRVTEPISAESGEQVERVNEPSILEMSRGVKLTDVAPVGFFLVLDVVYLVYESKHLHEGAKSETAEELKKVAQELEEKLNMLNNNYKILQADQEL
- assay_procedure: Trypanosoma brucei brucei lysis assay using APOL1 recombinant protein (AlamarBlue viability readout)
- measurement_parameters: Trypanosoma brucei brucei (Lister 427 VSG 221 bloodstream form) lysis by 0.05 μg/mL recombinant APOL1 G1, 16 hrs
pIC50: −log10 of the molar value.
metric_name: pIC50

[[record]]
smiles_str = "O=C(CCc1c(-c2ccc(F)cc2)[nH]c2c(F)cc(F)cc12)N[C@@H]1C(=O)NC[C@@H]1O"
metric_name = "pIC50"
test_result = "> 6.60"

[[record]]
smiles_str = "O=C(CCc1c(-c2ccccc2)[nH]c2ccc(F)cc12)N[C@@H]1C(=O)NC[C@H]1O"
metric_name = "pIC50"
test_result = "> 6.60"

[[record]]
smiles_str = "O=C(CCc1c(-c2ccc(F)cc2)[nH]c2c(Cl)cccc12)N[C@@H]1C(=O)NC[C@H]1O"
metric_name = "pIC50"
test_result = "> 6.60"

[[record]]
smiles_str = "O=C(CCc1c(-c2ccc(F)cc2)[nH]c2c(F)cc(F)cc12)N[C@H]1C[C@H](CO)NC1=O"
metric_name = "pIC50"
test_result = "< 6.00"

[[record]]
smiles_str = "O=C(CCc1c(-c2ccc(F)cc2)[nH]c2ccccc12)N[C@@H]1C(=O)NC[C@H]1O"
metric_name = "pIC50"
test_result = "> 6.60"

[[record]]
smiles_str = "N#Cc1cc(F)c2[nH]c(-c3ccc(F)cc3)c(CCC(=O)N[C@H]3CCNC3=O)c2c1"
metric_name = "pIC50"
test_result = "< 6.00"

[[record]]
smiles_str = "O=C(CCc1c(-c2ccccc2)[nH]c2c(Br)cccc12)N[C@@H]1C(=O)NC[C@H]1O"
metric_name = "pIC50"
test_result = "> 6.60"


* * *

Listing: IC50 of selected compounds
- target_system: G1 APOL1 (Homo sapiens, UniProt O14791, I384M/S342G)
- Sequence (O14791 28-398 S342G/I384M): as above
- assay_procedure: Acute APOL1 Thallium Assay with inducible stable clones of HEK 293 cells
- measurement_parameters: HEK T-Rex tetracycline-inducible cells expressing G1 APOL1 (clone G1 DC3.25); inhibition of thallium flux rate
metric_name: IC50

[[record]]
compound = "O=C(CCc1c(-c2ccc(Cl)cc2)[nH]c2ccccc12)N[C@@H]1C(=O)NC[C@H]1O"
metric_name = "IC50"
test_result = "< 250 nM"

[[record]]
compound = "CC(CC(=O)N[C@@H]1C(=O)NC[C@H]1O)c1c(-c2ccc(F)cc2)[nH]c2c(F)cc(F)cc12 (mixture of isomers)"
metric_name = "IC50"
test_result = "> 1000 nM"

[[record]]
compound = "O=C(CCc1c(-c2ccc(F)cc2)[nH]c2ccc(F)cc12)N[C@@H]1C(=O)NC[C@H]1O"
metric_name = "IC50"
test_result = "< 250 nM"

[[record]]
compound = "O=C(CCc1c(-c2ccccc2)[nH]c2c(F)c(F)ccc12)N[C@@H]1C(=O)NC[C@H]1O"
metric_name = "IC50"
test_result = "< 250 nM"

[[record]]
compound = "O=C(CCc1c(-c2ccc(F)cc2)[nH]c2ccccc12)N[C@@H]1C(=O)NC[C@@H]1O"
metric_name = "IC50"
test_result = "> 1000 nM"

[[record]]
compound = "O=C(CCc1c(-c2ccc(F)cc2)[nH]c2ccccc12)N[C@H]1C(=O)NC[C@@H]1O"
metric_name = "IC50"
test_result = "> 1000 nM"

[[record]]
compound = "N#Cc1cc(F)c2[nH]c(-c3ccc(F)cc3)c(CCC(=O)N[C@H]3CCNC3=O)c2c1"
metric_name = "IC50"
test_result = "> 1000 nM"


* * *

- target_system: APOL1 G1 Protein (Homo sapiens, UniProt O14791, I384M/S342G)
- assay_procedure: Trypanosoma brucei brucei lysis assay using APOL1 recombinant protein (AlamarBlue viability readout)
- measurement_parameters: Trypanosoma brucei brucei (Lister 427 VSG 221 bloodstream form) lysis by 0.05 μg/mL recombinant APOL1 G1, 16 hrs
pIC50: −log10 of the molar value.
metric_name: pIC50

[[record]]
compound = "O=C(CCc1c(-c2ccc(Cl)cc2)[nH]c2ccccc12)N[C@@H]1C(=O)NC[C@H]1O"
test_result = "> 6.60"

[[record]]
compound = "O=C(CCc1c(-c2ccccc2)[nH]c2c(F)c(F)c(F)cc12)N[C@@H]1C(=O)NC[C@H]1O"
test_result = "> 6.60"

[[record]]
compound = "O=C(CCc1c(-c2cc(F)cc(F)c2)[nH]c2ccccc12)N[C@@H]1C(=O)NC[C@H]1O"
test_result = "6.00 to 6.60"

[[record]]
compound = "O=C(CCc1c(-c2ccc(F)cc2)[nH]c2c(F)ccc(F)c12)N[C@H]1CCNC1=O"
test_result = "< 6.00"

[[record]]
compound = "O=C(CCc1c(-c2ccccc2)[nH]c2ccc(Cl)cc12)N[C@@H]1C(=O)NC[C@H]1O"
test_result = "> 6.60"

[[record]]
compound = "O=C(CCc1c(-c2ccccc2)[nH]c2cc(F)cc(F)c12)N[C@@H]1C(=O)NC[C@H]1O"
test_result = "> 6.60"

[[record]]
compound = "CN(C(=O)CCc1c(-c2ccc(F)cc2)[nH]c2ccc(F)cc12)C1CCNC1=O (centres unmarked)"
test_result = "6.00 to 6.60"

[[record]]
compound = "CC1(NC(=O)CCc2c(-c3ccc(F)cc3)[nH]c3c(F)cc(F)cc23)CCNC1=O (racemic)"
test_result = "> 6.60"

[[record]]
compound = "O=C(CCc1c(-c2ccc(F)cc2)[nH]c2ccc(C(F)(F)F)cc12)N[C@@H]1C(=O)NC[C@H]1O"
test_result = "> 6.60"

[[record]]
compound = "O=C(CCc1c(-c2cccc(F)c2)[nH]c2c(F)cc(F)cc12)N[C@@H]1C(=O)NC[C@H]1O"
test_result = "> 6.60"

[[record]]
compound = "O=C(CCc1c(-c2ccc(F)cc2)[nH]c2ccc(OCc3ccccc3)cc12)N[C@H]1CCNC1=O"
test_result = "6.00 to 6.60"

[[record]]
compound = "O=C(CCc1c(-c2ccc(F)cc2)[nH]c2ccc(F)cc12)N[C@@H]1C(=O)NC[C@H]1O"
test_result = "> 6.60"

[[record]]
compound = "O=C(CCc1c(-c2ccccc2)[nH]c2ccccc12)N[C@@H]1C(=O)NC[C@H]1O"
test_result = "> 6.60"

[[record]]
compound = "O=C(CCc1c(-c2ccc(OC(F)F)cc2)[nH]c2c(F)cc(F)cc12)N[C@H]1CCNC1=O"
test_result = "> 6.60"

[[record]]
compound = "O=C(CCc1c(-c2ccc(Cl)c(F)c2)[nH]c2ccccc12)N[C@@H]1C(=O)NC[C@H]1O"
test_result = "> 6.60"

[[record]]
compound = "O=C(CCc1c(-c2ccc(F)c(F)c2)[nH]c2ccccc12)N[C@@H]1C(=O)NC[C@H]1O"
test_result = "> 6.60"

[[record]]
compound = "O=C(CCc1c(-c2ccc(F)cc2)[nH]c2ccc(F)cc12)N[C@@H]1CCNC1=O"
test_result = "6.00 to 6.60"

[[record]]
compound = "Cc1c(F)c(F)cc2c(CCC(=O)N[C@@H]3C(=O)NC[C@H]3O)c(-c3ccccc3)[nH]c12"
test_result = "> 6.60"

[[record]]
compound = "O=C(CCc1c(-c2ccccc2)[nH]c2cc(F)c(F)cc12)N[C@@H]1C(=O)NC[C@H]1O"
test_result = "> 6.60"

[[record]]
compound = "O=C(CCc1c(-c2ccccc2)[nH]c2c(F)cccc12)N[C@@H]1C(=O)NC[C@H]1O"
test_result = "> 6.60"

[[record]]
compound = "O=C(CCc1c(-c2ccc(F)cc2)[nH]c2c(F)c(F)ccc12)N[C@@H]1C(=O)NC[C@H]1O"
test_result = "> 6.60"

[[record]]
compound = "O=C1C[C@@H](NC(=O)CCc2c(-c3ccc(F)cc3)[nH]c3c(F)cc(F)cc23)C(=O)N1"
test_result = "6.00 to 6.60"

[[record]]
compound = "O=C(CCc1c(-c2ccccc2)[nH]c2ccc(F)cc12)N[C@H]1CCNC1=O"
test_result = "> 6.60"

[[record]]
compound = "[2H]C([2H])(C(=O)N[C@@H]1C(=O)NC[C@H]1O)C([2H])([2H])c1c(-c2ccc(F)cc2)[nH]c2c(F)cc(F)cc12"
test_result = "> 6.60"

[[record]]
compound = "Cc1cc(F)cc2c(CCC(=O)N[C@@H]3C(=O)NC[C@H]3O)c(-c3ccc(F)cc3)[nH]c12"
test_result = "> 6.60"

[[record]]
compound = "N#Cc1ccc(-c2[nH]c3c(F)cc(F)cc3c2CCC(=O)N[C@H]2CCNC2=O)cc1"
test_result = "> 6.60"

